Catalogue of Hs18S ΔCT values
- System: HCT-8 host cells (Hs18S)
- Conditions Used: human, 41 h, 10 μM

Compound	Hs18S ΔCT
COC(=O)c1cc(OC)c(=O)c2c(OC)c(OC)ccc2c1	0.00
OC[C@H]1O[C@@](CO)(O[C@H]2O[C@H](CO)[C@@H](O)[C@H](O)[C@H]2O)[C@@H](O[C@H]2O[C@H](CO)[C@@H](O)[C@H](O)[C@H]2O)[C@@H]1O [MELEZITOSE]	-0.18
COc1c(OC)c2occc2c2oc(=O)ccc12 [PIMPINELLIN]	0.21
COc1c(O)cc2c(c1O)[C@@H]1O[C@H](CO)[C@@H](O)[C@H](O)[C@H]1OC2=O [BERGENIN]	0.38
COc1ccc([C@@H](C)C(=O)c2ccc(O)cc2O)cc1 [ANGOLENSIN (R)]	-0.17

###

- Test system: Cryptosporidium parvum
- Test Details: qRT-PCR assay of the growth of C. parvum in vitro in HCT-8 host cells (primary and secondary screening, EC50)
- Type: cell-based
- Conditions Used: primary screening at 10 uM
Observation Type: Inhibition (%)

> print(dat)
                                   compound   result
1  CC(C)CCC[C@@H](C)[C@H]1CC[C@H]2[C@@H]3CC[C@H]4C[C@@H](O)CC[C@]4(C)[C@H]3CC[C@]12C  -23.23%
2  CC(=O)O[C@@H]1C[C@H]2C(C)(C)C(=O)C=C[C@]2(C)[C@H]2CC[C@]3(C)C(=CC(=O)O[C@H]3c3ccoc3)[C@@]21C   28.62%
3  COc1ccc(-c2coc3c4c(c(CC=C(C)C)c(O)c3c2=O)OC(C)(C)C=C4)cc1  -21.87%
4  COC(=O)C1(C)CCCC2(C)c3ccc(O)c(C(C)C)c3CCC12 (centres unmarked)  -12.62%
5   COc1cc2c(cc1O)CCNC2C (centres unmarked)   -1.38%
6  Cl.c1ccc2c(c1)CN1CCCC1=N2 [DEOXYPEGANINE HYDROCHLORIDE]   36.29%
7  C=C[C@@]1(C)CC(=O)[C@@]2(O)[C@](C)(O1)[C@@H](O)[C@@H](O)C1C(C)(C)CC[C@H](O)[C@@]12C (some centres unmarked)   -6.53%
8  COc1ccc(-c2cc(=O)c3c(O)cc(OC)c(OC)c3o2)c(OC)c1 [5-HYDROXY-2',4',7,8-TETRAMETHOXYFLAVONE]   89.23%

###

- Test Details: in vitro
- Conditions Used: human
The following compounds are listed with their measured cytotoxicity at 41 h, 10 µM values.
Observation Type: cytotoxicity at 41 h, 10 µM (%)

> print(dat)
                                   compound             observation.type  readout.number
1              CC(C)=CCOc1cc2oc(=O)ccc2cc1O  cytotoxicity at 41 h, 10 µM             -50
2         O=C(CCc1ccc(O)cc1)c1c(O)cc(O)cc1O  cytotoxicity at 41 h, 10 µM           -10.8
3  CC[C@H](C)C(=O)O[C@H]1CCC=C2C=C[C@H](C)[C@H](CC[C@@H]3C[C@@H](O)CC(=O)O3)[C@H]21  cytotoxicity at 41 h, 10 µM            14.4
4  C[C@H](CCC(=O)O)[C@H]1CC[C@H]2[C@@H]3C(=O)C[C@@H]4CC(=O)CC[C@]4(C)[C@H]3CC(=O)[C@]12C [DEHYDROCHOLIC ACID]  cytotoxicity at 41 h, 10 µM            -4.2
5         O=C(/C=C/c1ccc(O)cc1)c1ccc(O)cc1O  cytotoxicity at 41 h, 10 µM           -26.4
